System: SNB-75 CNS
Test: NCI-60 one-dose screen, 48 h (100 = growth as untreated, 0 = no growth, -100 = all killed)
Settings: 10 µM unless noted
Procedure: Growth inhibition of the SNB-75 human tumor cell line is measured as a screen for anti-cancer activity. Cells are grown in 96 well plates and exposed to the test compound for 48 hours. Compounds are tested at a single concentration, which is 10^-5 M for most compounds. The reported endpoint is percent growth (GI% or GIPRCNT), where numbers from 0 - 100% represent growth inhibition, and numbers from -100% - 0 represent cell death. For example, a value of 40 represents 60% growth inhibition. […]
About 83,000 compounds went through this panel and 20% of them were active in at least one assay; those are over-represented in the sample as a whole.
assayReadout: growth (%)
Numbers only, in %.

Some compounds with recorded growth:
compound: CC(O)c1cccc(/C(N)=N/C(N)=N/c2nc3ccccc3s2)c1 (stereo not given)
target: SNB-75 CNS
assayReadout: growth
unitsLabel: %
measuredResult: 80
--
compound: COc1ccc(OC)c(NC(=O)CCCCCCNC(=O)C(O)(O)C(F)(F)F)c1
target: SNB-75 CNS
assayReadout: growth
unitsLabel: %
measuredResult: 56.1
--
compound: CCN(CC)CCOc1ccc(C(=C(C)c2ccc(OC)cc2)c2ccc(OCCN(CC)CC)cc2)cc1
target: SNB-75 CNS
assayReadout: growth
unitsLabel: %
measuredResult: 30.5
--
compound: CN(C)CCCOc1ccc(C(=C(c2ccccc2)C2CCCC2)c2ccc(OCCCN(C)C)cc2)cc1
target: SNB-75 CNS
assayReadout: growth
unitsLabel: %
measuredResult: -66.1
--
compound: Clc1ccc2[nH]cc(-c3nn4cc(-c5ccncc5)nc4s3)c2c1
target: SNB-75 CNS
assayReadout: growth
unitsLabel: %
measuredResult: 72.4

Hi there! I need growth for each item below, if you can.
1. CCOC(=O)c1c(NC(=O)c2ccc(C(F)(F)F)cc2)sc2c(CN3CCN(C)CC3)c(O)ccc12
2. O=C(CCCCCCNC(=O)c1csc(Br)n1)NO
3. Fc1cc(F)cc(NNC(=S)c2ccccc2)c1
4. CCN(CC)S(=O)(=O)c1ccc(-c2nc(C(Cl)Cl)nc3cc(C)nn23)cc1
5. CCc1cc(O)ccc1Nc1cc(-c2ccc(-n3cccn3)cc2)[nH]n1

Result:
1. 63.8
2. 19.4
3. 70.9
4. 46.7
5. 117

* * *

Consider the following molecules; for each one, report its growth.
System: A549/ATCC NSCLC
Assay: NCI-60 one-dose screen, 48 h (100 = growth as untreated, 0 = no growth, -100 = all killed)
Conditions: 10 µM unless noted
Experimental: Growth inhibition of the A549/ATCC human Non-Small Cell Lung tumor cell line is measured as a screen for anti-cancer activity. Cells are grown in 96 well plates and exposed to the test compound for 48 hours. Compounds are tested at a single concentration, which is 10^-5 M for most compounds. The reported endpoint is percent growth (GI% or GIPRCNT), where numbers from 0 - 100% represent growth inhibition, and numbers from -100% - 0 represent cell death. […]
This is part of a sample that, as a whole, favours compounds with a hit. Of some 83,000 tested, about 20% had one in any assay.
Give bare numbers, in %.

Consider the reported growth for these molecules:
molecule: C=C1CCc2nc(SCC(=O)O)ccc2N1
unitsLabel: %
growth: 108

molecule: O=C(CCCCCCN1CC(=O)N2[C@@H](c3ccc(Cl)s3)c3[nH]c4ccccc4c3C[C@H]2C1=O)NO
unitsLabel: %
growth: 73.4

molecule: O=C(CCCCCCNC(=O)C(O)(O)C(F)(F)F)Nc1ccc(Cl)cc1
unitsLabel: %
growth: 20.7

molecule: O=C(CCl)Nc1ccc(NC(=O)c2cc(Cl)ccc2O)c(Cl)c1
unitsLabel: %
growth: 88.3

molecule: COc1cc(-c2nc(-c3ccccc3)[nH]c2-c2ccnc(NCCCNS(=O)(=O)c3ccc(C)cc3)n2)ccc1F
unitsLabel: %
growth: 74.2

Please state growth for every molecule in the list that follows.
1. CC1=C(C)C(=O)C(Nc2cccc(C(F)(F)F)c2)=C(Br)C1=O
2. O=C(/C=C/Nc1ccc(S(=O)(=O)Nc2ncccn2)cc1)c1ccc(N=Cc2c(O)[nH]c3ccccc23)cc1
3. CC(=C(c1ccc(OCCCN(C)C)cc1)c1ccc(OCCCN(C)C)cc1)c1ccc(Cl)cc1
4. Cc1csc(/N=C(N)/N=C(\N)c2cccnc2)n1
5. CN1CCN(CC#CCn2c3c(c4ccccc42)C[C@]2(C)[C@H]4CC=C5[C@@H]6CC(C)(C)CC[C@]6(C(=O)N6CCOCC6)CC[C@@]5(C)[C@]4(C)CC[C@H]2C3(C)C)CC1

Result:
94.4
102
79.8
82
41.9
